These measurements were taken from paper PMC7580722.

Biological target: HsCdk2/Cyclin A (Homo sapiens, UniProt P24941)
Construct: made in house; host or cells: baculovirus/Sf9 cells
Experiment: CDK2 kinase assay
Type: biochemical
measurement.label: IC50 (nM)
Enter your answer as a number in nM; do not include the unit.

## Task State the recorded IC50 for this entry: CCCNc1ccc2ncc(-c3ccc4[nH]ncc4c3)n2n1 [Compound 5, reference compound]
## Result 91

---

Target: HsHaspin (Homo sapiens, UniProt Q8TF76)
Construct: aa470-798
Sequence (Q8TF76 470-798): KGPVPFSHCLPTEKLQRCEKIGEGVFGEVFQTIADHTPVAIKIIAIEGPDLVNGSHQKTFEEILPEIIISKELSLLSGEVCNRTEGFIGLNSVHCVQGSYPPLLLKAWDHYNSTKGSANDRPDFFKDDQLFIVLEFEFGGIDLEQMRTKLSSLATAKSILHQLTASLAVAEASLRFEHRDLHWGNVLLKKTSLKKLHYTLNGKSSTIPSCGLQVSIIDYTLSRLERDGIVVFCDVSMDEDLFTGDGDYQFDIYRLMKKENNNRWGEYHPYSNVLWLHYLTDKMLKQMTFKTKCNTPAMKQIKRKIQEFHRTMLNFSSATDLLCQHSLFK
Test: Recombinant Haspin kinase assay ([γ-33P]ATP, 15 µM ATP; some values ADP-Glo)
Conditions: recombinant HsHaspin, in vitro
measurement.label: pIC50
Remember, pIC50 is on a log scale: it is -log10 of the molar concentration.

Solved entries (count: 5):
mol.smiles | numeric.readout
c1cc2[nH]ncc2cc1-c1cnc2ccc(NC3CCCC3)nn12 | 7.51
c1cc2[nH]ncc2cc1-c1cnc2ccc(OC[C@@H]3COCCN3)nn12 | 7.60
CCOc1ccc2ncc(-c3ccc4[nH]ncc4c3)n2n1 | 7.16
c1cc2[nH]ncc2cc1-c1cnc2ccc(OC[C@H]3CNCCO3)nn12 | 7.92
c1cc2[nH]ncc2cc1-c1cnc2ccc(OC[C@H]3COCCN3)nn12 | 7.70

## Task # get_value(readout= pIC50, system= HsHaspin (Homo sapiens, UniProt Q8TF76)) for c1cc2[nH]ncc2cc1-c1cnc2ccc(OC[C@@H]3CNCCO3)nn12
## Result 8.22
